Each entry below lists one item and its recorded pIC50 value.
- target_or_system: Broad substrate specificity ATP-binding cassette transporter ABCG2 (Homo sapiens)
- Sequence (Q9UNQ0 whole entry): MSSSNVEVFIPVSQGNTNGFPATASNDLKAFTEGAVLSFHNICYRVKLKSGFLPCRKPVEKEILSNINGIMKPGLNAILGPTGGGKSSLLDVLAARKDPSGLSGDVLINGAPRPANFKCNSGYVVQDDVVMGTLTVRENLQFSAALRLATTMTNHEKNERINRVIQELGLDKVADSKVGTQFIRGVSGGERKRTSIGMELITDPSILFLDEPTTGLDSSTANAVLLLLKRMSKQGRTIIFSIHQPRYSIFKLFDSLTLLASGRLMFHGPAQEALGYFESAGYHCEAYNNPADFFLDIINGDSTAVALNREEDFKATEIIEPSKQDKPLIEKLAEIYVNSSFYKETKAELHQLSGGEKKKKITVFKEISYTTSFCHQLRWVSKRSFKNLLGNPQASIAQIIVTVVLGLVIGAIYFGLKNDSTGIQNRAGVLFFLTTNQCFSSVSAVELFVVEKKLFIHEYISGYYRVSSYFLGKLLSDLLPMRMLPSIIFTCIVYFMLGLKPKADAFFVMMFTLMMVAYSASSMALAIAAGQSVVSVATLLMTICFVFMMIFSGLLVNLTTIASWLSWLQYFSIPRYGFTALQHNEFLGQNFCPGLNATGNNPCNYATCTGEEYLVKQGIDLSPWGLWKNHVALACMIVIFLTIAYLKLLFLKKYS
- test_summary: Inhibition of c-terminal GFP-tagged human ABCG2 expressed in MDCK2 cells preincubated for 30 mins before Hoechst 33342 addition by Hoechst 33342 accumulation assay
- Assay type: cell-based
pIC50: −log10 of the molar value.
measurement_name: pIC50

- smiles_entry: "Ic1cccc(Nc2nc(-c3ccccc3)nc3ccccc23)c1"
  measurement_name: "pIC50"
  value: 6.10
- smiles_entry: "COc1cccc(Nc2cc(-c3ccccc3)nc3ccccc23)c1"
  measurement_name: "pIC50"
  value: 6.02
- smiles_entry: "CC(C)(C)c1ccc(Nc2nc(-c3ccccc3)nc3ccccc23)cc1"
  measurement_name: "pIC50"
  value: 5.97
- smiles_entry: "CC(C)(C)c1cccc(Nc2nc(-c3ccccc3)nc3ccccc23)c1"
  measurement_name: "pIC50"
  value: 5.97
- smiles_entry: "COc1ccc(Nc2nc(-c3ccccc3)nc3ccccc23)cc1F"
  measurement_name: "pIC50"
  value: 6.06
- smiles_entry: "COC(=O)c1ccc(Nc2nc(-c3ccccc3)nc3ccccc23)cc1"
  measurement_name: "pIC50"
  value: 6.03
